List of pEC50 values.
Target: sGC (Homo sapiens (Human), UniProt Q02153)
Sequence (Q02153 whole entry): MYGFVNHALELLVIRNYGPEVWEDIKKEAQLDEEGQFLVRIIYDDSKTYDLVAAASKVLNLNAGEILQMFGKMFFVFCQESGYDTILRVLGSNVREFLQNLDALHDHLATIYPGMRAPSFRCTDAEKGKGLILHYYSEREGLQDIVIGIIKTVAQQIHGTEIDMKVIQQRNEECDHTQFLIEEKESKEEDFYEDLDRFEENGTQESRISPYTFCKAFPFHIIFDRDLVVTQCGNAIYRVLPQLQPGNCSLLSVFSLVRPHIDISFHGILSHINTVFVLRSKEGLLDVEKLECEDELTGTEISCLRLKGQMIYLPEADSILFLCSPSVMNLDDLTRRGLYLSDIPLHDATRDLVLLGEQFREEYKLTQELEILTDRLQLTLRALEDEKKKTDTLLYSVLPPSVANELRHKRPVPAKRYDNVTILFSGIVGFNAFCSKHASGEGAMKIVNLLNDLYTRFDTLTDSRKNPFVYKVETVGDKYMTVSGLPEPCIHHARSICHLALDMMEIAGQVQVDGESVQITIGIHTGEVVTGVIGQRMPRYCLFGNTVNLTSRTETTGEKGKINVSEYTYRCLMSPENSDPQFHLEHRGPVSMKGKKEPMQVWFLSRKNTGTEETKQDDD
Sequence (Q02108 whole entry partner): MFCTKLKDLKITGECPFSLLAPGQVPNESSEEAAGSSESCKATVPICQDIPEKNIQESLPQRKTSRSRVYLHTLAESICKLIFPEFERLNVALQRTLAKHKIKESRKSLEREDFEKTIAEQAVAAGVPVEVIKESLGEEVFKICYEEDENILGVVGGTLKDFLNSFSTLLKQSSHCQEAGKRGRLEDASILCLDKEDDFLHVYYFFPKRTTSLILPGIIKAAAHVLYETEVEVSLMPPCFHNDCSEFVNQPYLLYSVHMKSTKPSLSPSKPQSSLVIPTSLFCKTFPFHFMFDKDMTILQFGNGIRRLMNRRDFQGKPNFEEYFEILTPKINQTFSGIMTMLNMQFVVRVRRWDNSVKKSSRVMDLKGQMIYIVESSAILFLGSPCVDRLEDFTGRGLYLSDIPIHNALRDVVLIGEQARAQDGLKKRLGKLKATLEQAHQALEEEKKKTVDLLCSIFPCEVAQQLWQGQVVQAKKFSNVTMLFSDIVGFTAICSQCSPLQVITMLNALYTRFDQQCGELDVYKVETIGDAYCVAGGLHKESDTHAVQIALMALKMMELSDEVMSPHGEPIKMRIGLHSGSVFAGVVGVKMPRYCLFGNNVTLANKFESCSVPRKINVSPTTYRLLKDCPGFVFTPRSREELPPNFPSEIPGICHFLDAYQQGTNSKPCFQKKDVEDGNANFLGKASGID
Test: cGMP expression test based on LNCap cells (sGC stimulatory activity)
Details: cGMP production in LNCap cells; ODQ present
// scale note: pEC50 = -log10(conc_M); give the bare number

Compound	pEC50
COC12CC([C@H](CC(=O)O)c3ccc(Cl)c(NC(=O)[C@H](c4ccc(Cl)cc4)[C@@H](C)C(F)(F)F)c3)(C1)C2	8.78
C[C@H]([C@H](C(=O)Nc1cc([C@@H](CC(=O)O)C23CC(F)(C2)C3)ccc1Cl)c1ccc(Cl)cc1)C(F)(F)F	8.69
COC12CC(C(CC(=O)O)c3ccc(Cl)c(NC(=O)[C@H](c4ccc(Cl)cc4)[C@@H](C)C(F)(F)F)c3)(C1)C2 (stereo partly shown)	8.46
C[C@H]([C@H](C(=O)Nc1cc(C(CC(=O)O)C23CC(F)(C2)C3)ccc1Cl)c1ccc(Cl)cc1)C(F)(F)F (stereo partly shown)	8.43
Cc1ccc(C(CC(=O)O)C23CC(F)(C2)C3)cc1NC(=O)C(c1ccc(Cl)cc1)[C@@H](C)C(F)(F)F (stereo partly shown)	8.67

What is its pEC50 for sGC (Homo sapiens (Human), UniProt Q02153)? Entry: `C[C@H]([C@H](C(=O)Nc1cc([C@@H](CC(=O)O)[C@H]2CCCO2)ccc1Cl)c1ccc(Cl)cc1)C(F)(F)F` 6.84

What is its pEC50 for sGC (Homo sapiens (Human), UniProt Q02153)? Entry: `Cc1ccc([C@@H](CC(=O)O)C23CC(F)(C2)C3)cc1NC(=O)[C@H](c1ccc(Cl)cc1)[C@@H](C)C(F)(F)F` 8.76
